biological target: Calmodulin-1 (Homo sapiens)
EXPERIMENTAL READOUT: Kd (µM)
Answers are plain numbers, in µM.

Asked: Determine reported Kd for COC(=O)[C@@H](CC(=O)Cc1ccc(/C=C/c2ccc(CC(=O)C[C@@H](Cc3c[nH]c4ccccc34)C(=O)OC)cc2)cc1)Cc1c[nH]c2ccccc12 ; test system: Calmodulin-1 (Homo sapiens).
Given back: 9
